Test system: HeLa
protocol_description: Cytotoxicity against human HeLa cells assessed as reduction in cell viability at 12.5 to 100 ug/ml measured after 12 hrs by crystal violet staining based assay
quantity_name: Activity

Solved cases below.
compound=COc1cc(-c2oc3cc(O)cc(O)c3c(=O)c2O)ccc1O quantity_name=Activity measured=Non-Toxic
compound="O=C(O)C(=Cc1ccc(O)cc1)/C=C/c1ccc(O)cc1 (mixture of isomers)" quantity_name=Activity measured=Non-Toxic
compound=O=c1c(O)c(-c2ccc(O)c(O)c2)oc2cc(O)cc(O)c12 quantity_name=Activity measured=Toxic
compound=O=C1O[C@H](c2ccc(O)cc2)[C@@H](C(=O)O)/C1=C\c1ccc(O)cc1 quantity_name=Activity measured=Non-Toxic

Now consider the entry below.
Observed Activity on HeLa for `O=C(/C=C/c1ccc(O)c(O)c1)O[C@H]1[C@@H](C(=O)O)OC(C(=O)O)=C[C@H]1OC(=O)/C=C/c1ccc(O)c(O)c1` , please.
Non-Toxic
